meta.source: ChEMBL document CHEMBL1201862

- System: SNB-19
- assay summary: NCI tumour cell line growth inhibition, 48 h
Active and inactive are the calls of the source. Rule as the data show it: active = GI50 up to about 1.1 µM and inactive = higher.
quantity: GI50

### Prompt Which GI50 reading was recorded for the compound O=C1c2ccccc2C2(c3ccc(Cl)cc3)N[C@@H]3CCCC[C@@H]3N12 (stereo not given in full) ?
### Response > 100 µM (inactive)

### Prompt Consider the compound shown here: COc1ccccc1N1C(=O)/C(=C\c2cc(OC)c(OC)c(OC)c2)SC1c1ccccc1 (stereo not given) What is its recorded GI50?
### Response 27 µM (inactive)

### Prompt Fill in: GI50 of C=CC(C)(C)C1(CC(OC)OC)C(=O)N(C)c2ccccc21 (stereo not given) is ___
### Response > 25 µM (inactive)

### Prompt Reported GI50 for COC(=O)C1(C#N)C(C)(C)N=C(c2ccccc2)C12CCCCC2 (stereo not given) : what is it?
### Response > 100 µM (inactive)

### Prompt Give the measured GI50 of CC(C)c1ccc(O)c(Cc2cc(C(C)C)cc(Cc3cc(C(C)C)ccc3O)c2O)c1 .
### Response 1.65 µM (inactive)
